Origin of values: ChEMBL document CHEMBL4265988

Readings of fold change (FC) for the listed molecules
- target desc: CAAX prenyl protease 1 homolog (Homo sapiens) (UniProt O75844)
- Sequence (O75844 whole entry): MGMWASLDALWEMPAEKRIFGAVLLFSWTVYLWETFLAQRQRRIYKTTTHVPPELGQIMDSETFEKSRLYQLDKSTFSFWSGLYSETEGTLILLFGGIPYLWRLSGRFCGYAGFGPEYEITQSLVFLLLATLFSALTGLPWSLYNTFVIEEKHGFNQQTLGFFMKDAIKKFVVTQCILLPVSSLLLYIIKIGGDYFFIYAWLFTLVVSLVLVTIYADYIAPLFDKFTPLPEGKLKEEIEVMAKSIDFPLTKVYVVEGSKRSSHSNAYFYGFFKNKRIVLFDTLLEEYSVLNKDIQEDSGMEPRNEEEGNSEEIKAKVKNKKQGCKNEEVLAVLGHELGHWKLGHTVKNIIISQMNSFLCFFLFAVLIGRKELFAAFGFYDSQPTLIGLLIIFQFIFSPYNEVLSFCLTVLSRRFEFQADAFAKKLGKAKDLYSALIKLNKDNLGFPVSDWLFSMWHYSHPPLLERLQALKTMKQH
- procedure text: Inhibition of ZMPSTE24 in human U2OS cells assessed as increase in intracellular accumulation of prelamin A at 10 uM after 24 hrs by Western blot analysis relative to control
- Format: cell-based
measured parameter: fold change (FC)

molecule	measurement
Cc1cccc(C)c1OCC(=O)N[C@@H](Cc1ccccc1)[C@@H](O)C[C@H](Cc1ccccc1)NC(=O)[C@@H](NC(=O)CC1CC1)C(C)C	3
Cc1cccc(C)c1OCC(=O)N[C@@H](Cc1ccccc1)[C@@H](O)C[C@H](Cc1ccccc1)NC(=O)[C@@H](NC(=O)C1CCCCN1)C(C)C (some centres undefined)	2
Cc1cccc(C)c1OCC(=O)N[C@@H](Cc1ccccc1)[C@@H](O)C[C@H](Cc1ccccc1)NC(=O)[C@@H](NC(=O)c1ccnc(Cl)c1)C(C)C	3
Cc1cccc(C)c1OCC(=O)N[C@@H](Cc1ccccc1)[C@@H](O)C[C@H](Cc1ccccc1)NC(=O)[C@@H](NC(=O)c1cc(Cl)cc(C(F)(F)F)c1)C(C)C	2.4
